So I've got a bunch of compounds here, and I need their IC50 values.
- assayed_target: Full length Cereblon protein (6His tev Cereblon/6His tev DDB1ΔBPB) (Homo sapiens, UniProt Q96SW2)
- Construct: Full length Cereblon protein (6His tev Cereblon/6His tev DDB1ΔBPB) was expressed and purified from E. coli; made in house; host or cells: E. coli
- protocol_notes: Cereblon Binding Assay (TR-FRET)
- assay_setup: 5 nM protein, 50 nM Alexa647-lenalidomide ligand, read-out: Mean pIC50 (converted)
- Description: Full length Cereblon protein (6His tev Cereblon/6His tev DDB1ΔBPB) was expressed and purified from E. coli to monitor compound binding. […] A Thermo Scientific Multidrop Combi was used to dispense 5 μL of 10 nM protein in assay buffer of 50 mM HEPES, 150 mM NaCl, 5% glycerol, 1 mM DTT and 1 mM CHAPS, pH 7.4, in the presence of 100 nM fluorescent ligand (Final assay concentrations of 5 nM protein and 50 nM ligand). […]
// units = µM; emit number, no label

Exercise: Please indicate IC50 recorded for O=C1CCN(c2cc(Cl)cc3c2ccn3C2CCNCC2)C(=O)N1
Solution: 0.00794

Exercise: Please indicate IC50 recorded for O=C1CCN(c2nccc3c2ccn3C2CCNCC2)C(=O)N1
Solution: 0.229

Exercise: Please indicate IC50 recorded for O=C1CCN(c2cc(C(F)(F)F)cc3c2cnn3C2CCNCC2)C(=O)N1
Solution: 0.245

* * *

- assayed_target: Androgen Receptor (Homo sapiens, UniProt P10275, T878A)
- Construct: the AR gene was modified, using CRISPR/Cas9 editing, so the expressed AR protein included an 11 amino acid HiBiT tag; endogenous in cells; host or cells: clonal LnCaP-derived line, AR gene edited by CRISPR/Cas9
- Sequence (P10275 whole entry T878A): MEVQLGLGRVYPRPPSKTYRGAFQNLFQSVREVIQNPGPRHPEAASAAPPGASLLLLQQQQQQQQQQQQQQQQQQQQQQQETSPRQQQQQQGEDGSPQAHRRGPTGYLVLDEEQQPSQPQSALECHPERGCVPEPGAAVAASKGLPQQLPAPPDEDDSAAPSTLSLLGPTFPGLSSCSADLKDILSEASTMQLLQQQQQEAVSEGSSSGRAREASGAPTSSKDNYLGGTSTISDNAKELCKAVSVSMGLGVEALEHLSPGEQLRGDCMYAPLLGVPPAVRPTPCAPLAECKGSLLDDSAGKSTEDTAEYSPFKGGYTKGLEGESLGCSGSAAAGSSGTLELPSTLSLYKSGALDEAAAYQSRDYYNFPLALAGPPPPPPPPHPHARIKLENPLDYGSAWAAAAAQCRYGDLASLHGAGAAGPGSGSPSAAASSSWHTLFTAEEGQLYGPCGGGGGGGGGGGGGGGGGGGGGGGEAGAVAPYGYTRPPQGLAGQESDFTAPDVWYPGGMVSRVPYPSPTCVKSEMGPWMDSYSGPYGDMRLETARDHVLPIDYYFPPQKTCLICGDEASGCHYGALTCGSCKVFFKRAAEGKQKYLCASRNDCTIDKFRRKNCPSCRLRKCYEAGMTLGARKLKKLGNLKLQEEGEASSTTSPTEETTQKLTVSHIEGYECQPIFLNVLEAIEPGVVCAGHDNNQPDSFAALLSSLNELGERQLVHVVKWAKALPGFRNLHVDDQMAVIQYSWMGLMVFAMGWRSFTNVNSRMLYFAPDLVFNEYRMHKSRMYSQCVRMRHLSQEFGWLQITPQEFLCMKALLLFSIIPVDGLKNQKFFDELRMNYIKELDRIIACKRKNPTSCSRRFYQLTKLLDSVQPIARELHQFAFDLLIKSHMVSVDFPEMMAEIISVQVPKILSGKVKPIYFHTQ
- Sequence (Q96SW2 whole entry partner): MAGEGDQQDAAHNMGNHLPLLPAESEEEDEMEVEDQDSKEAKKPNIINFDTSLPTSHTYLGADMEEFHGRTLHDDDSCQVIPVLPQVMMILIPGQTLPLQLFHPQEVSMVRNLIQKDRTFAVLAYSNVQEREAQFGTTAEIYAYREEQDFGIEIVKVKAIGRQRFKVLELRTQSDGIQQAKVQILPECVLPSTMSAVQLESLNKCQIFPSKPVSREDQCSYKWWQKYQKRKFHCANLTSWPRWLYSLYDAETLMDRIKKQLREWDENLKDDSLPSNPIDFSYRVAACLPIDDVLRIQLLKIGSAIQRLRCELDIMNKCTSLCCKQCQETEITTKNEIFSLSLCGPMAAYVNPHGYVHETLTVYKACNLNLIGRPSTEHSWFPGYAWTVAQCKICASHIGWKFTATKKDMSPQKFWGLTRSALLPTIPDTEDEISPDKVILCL
- Sequence (Q16531 whole entry partner): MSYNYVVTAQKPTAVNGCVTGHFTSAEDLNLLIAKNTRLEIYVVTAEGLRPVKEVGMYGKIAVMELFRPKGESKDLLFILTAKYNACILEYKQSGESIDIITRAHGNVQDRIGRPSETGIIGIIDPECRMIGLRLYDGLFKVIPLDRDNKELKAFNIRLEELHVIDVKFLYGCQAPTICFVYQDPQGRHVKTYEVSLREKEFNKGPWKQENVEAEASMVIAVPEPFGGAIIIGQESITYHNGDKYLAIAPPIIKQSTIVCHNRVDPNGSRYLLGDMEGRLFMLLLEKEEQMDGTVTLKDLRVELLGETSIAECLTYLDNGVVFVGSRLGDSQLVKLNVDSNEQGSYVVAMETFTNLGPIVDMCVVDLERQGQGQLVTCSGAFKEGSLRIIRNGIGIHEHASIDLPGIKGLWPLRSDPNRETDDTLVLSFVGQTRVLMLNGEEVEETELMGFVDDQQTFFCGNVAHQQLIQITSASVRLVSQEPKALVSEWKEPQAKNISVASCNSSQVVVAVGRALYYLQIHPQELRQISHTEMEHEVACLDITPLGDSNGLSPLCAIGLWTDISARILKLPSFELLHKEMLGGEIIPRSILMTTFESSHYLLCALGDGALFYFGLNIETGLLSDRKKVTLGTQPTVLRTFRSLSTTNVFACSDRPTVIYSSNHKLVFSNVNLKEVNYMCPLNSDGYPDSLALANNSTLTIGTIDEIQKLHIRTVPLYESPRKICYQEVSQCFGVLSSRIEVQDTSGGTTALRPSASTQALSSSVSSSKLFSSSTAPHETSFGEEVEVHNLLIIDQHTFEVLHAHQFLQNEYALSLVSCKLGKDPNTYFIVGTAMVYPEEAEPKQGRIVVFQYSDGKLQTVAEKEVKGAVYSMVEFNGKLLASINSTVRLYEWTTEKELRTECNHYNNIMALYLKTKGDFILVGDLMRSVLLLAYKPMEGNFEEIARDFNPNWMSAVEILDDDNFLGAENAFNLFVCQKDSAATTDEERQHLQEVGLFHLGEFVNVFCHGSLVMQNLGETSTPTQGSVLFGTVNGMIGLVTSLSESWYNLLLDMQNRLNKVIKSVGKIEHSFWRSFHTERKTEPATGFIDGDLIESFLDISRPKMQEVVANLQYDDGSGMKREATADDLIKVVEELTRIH
- protocol_notes: Androgen Receptor Degradation Assay (Nano-Glo HiBiT)
- Assay type: cell-based
- assay_setup: LNCaP, 18 h, HiBiT-tagged AR in human LnCaP cells, read-out: mean asymptote max
Counter-ions that a name gives are not always drawn.
readout_label: Dmax

Exercise: Please indicate Dmax recorded for CC1(C)C(=O)N(c2ccc(C#N)c(C(F)(F)F)c2)C(=S)N1c1ccc(OCCCN2CCC(n3ccc4c(N5CCC(=O)NC5=O)cncc43)CC2)cc1
Solution: ≥ 50%

Exercise: Please indicate Dmax recorded for N#Cc1ccc(O[C@H]2CC[C@H](NC(=O)c3ccc(N4CCOC(CCN5CCC(n6ncc7c(N8CCC(=O)NC8=O)cccc76)CC5)C4)nn3)CC2)cc1Cl (stereo partly drawn)
Solution: ≥ 50%

Exercise: Please indicate Dmax recorded for N#Cc1ccc(O[C@H]2CC[C@H](NC(=O)c3ccc(N4CC(CN5CCC(n6ncc7c(N8CCC(=O)NC8=O)cccc76)CC5)C4)nn3)CC2)cc1Cl [EAR154, formic acid salt]
Solution: ≥ 50%

* * *

- assayed_target: Full length Cereblon protein (6His tev Cereblon/6His tev DDB1ΔBPB) (Homo sapiens, UniProt Q96SW2)
- Construct: Full length Cereblon protein (6His tev Cereblon/6His tev DDB1ΔBPB) was expressed and purified from E. coli; made in house; host or cells: E. coli
- protocol_notes: Cereblon Binding Assay (TR-FRET)
- assay_setup: 5 nM protein, 50 nM Alexa647-lenalidomide ligand, read-out: Mean pIC50 (converted)
So I've got a bunch of molecules here, and I need their IC50 values.
// units = nM; emit number, no label

Exercise: Please indicate IC50 recorded for CC(C)n1ccc2c(N3CCC(=O)NC3=O)cc(C(=O)N(C)C3CCNCC3)cc21
Solution: 25.1

Exercise: Please indicate IC50 recorded for O=C1CCN(c2cncc3c2ccn3C2CCNCC2)C(=O)N1
Solution: 25.1

Exercise: Please indicate IC50 recorded for O=C1CCN(c2ccnc3c2cnn3C2CCNCC2)C(=O)N1
Solution: 380

Exercise: Please indicate IC50 recorded for O=C1CCN(c2cc(F)cc3c2cnn3C2CCNCC2)C(=O)N1
Solution: 200

Exercise: Please indicate IC50 recorded for O=C1CCN(c2ncnc3c2ccn3C2CCNCC2)C(=O)N1
Solution: 316

Exercise: Please indicate IC50 recorded for O=C1CCN(c2cccc3c2cnn3C2CCNCC2)C(=O)N1
Solution: 10

Exercise: Please indicate IC50 recorded for O=C1CCN(c2nccc3c2cnn3C2CCNCC2)C(=O)N1
Solution: 79.4

Exercise: Please indicate IC50 recorded for CCn1ccc2c(N3CCC(=O)NC3=O)cccc21
Solution: 24

Exercise: Please indicate IC50 recorded for Cn1ncc2c(N3CCC(=O)NC3=O)cccc21
Solution: 309

Exercise: Please indicate IC50 recorded for COCCn1ccc2c(N3CCC(=O)NC3=O)cccc21
Solution: 35.5

Exercise: Please indicate IC50 recorded for O=C1CCN(c2cc(F)cc3c2ccn3C2CCNCC2)C(=O)N1
Solution: 33.1

Exercise: Please indicate IC50 recorded for Cn1ccc2c(N3CCC(=O)NC3=O)nccc21
Solution: 575

Exercise: Please indicate IC50 recorded for O=C1CCN(c2cc(C(F)(F)F)cc3c2ccn3C2CCNCC2)C(=O)N1
Solution: 55

Exercise: Please indicate IC50 recorded for O=C1CCN(c2cncc3c2cnn3C2CCNCC2)C(=O)N1
Solution: 251

* * *

So I've got a bunch of molecules here, and I need their mean relative pDC50 values.
- assayed_target: Androgen Receptor (Homo sapiens, UniProt P10275, T878A)
- Construct: the AR gene was modified, using CRISPR/Cas9 editing, so the expressed AR protein included an 11 amino acid HiBiT tag; endogenous in cells; host or cells: clonal LnCaP-derived line, AR gene edited by CRISPR/Cas9
- protocol_notes: Androgen Receptor Degradation Assay (Nano-Glo HiBiT)
- Assay type: cell-based
- assay_setup: HiBiT-tagged AR in human LnCaP cells, 18 h
- Protocol: Degradation of Androgen Receptor protein in human LnCaP cells treated with PROTACs was quantified using the Nano-Glo® HiBiT Lytic Detection System (Promega) in 384 well assay plate format. […] The intensity of luminescence was measured using a PHERAstar microplate reader (BMG Labtech) and the % AR protein remaining in each well calculated by normalising the raw luminescence value to the above control wells. […]

Exercise: Please indicate mean relative pDC50 recorded for CC1(C)[C@H](NC(=O)c2ncc(N3CCC(CN4CCC(n5ncc6c(N7CCC(=O)NC7=O)nccc65)CC4)CC3)cn2)C(C)(C)[C@H]1Oc1ccc(C#N)c(Cl)c1
Solution: 5.67

Exercise: Please indicate mean relative pDC50 recorded for CC(C)n1ccc2c(N3CCC(=O)NC3=O)cc(C(=O)N3CCN(CCC4CCN(c5ccc(NC(=O)N6C[C@H](C)N(c7ccc(C#N)c(Cl)c7)C[C@H]6C)cn5)CC4)CC3)cc21
Solution: 5.72

Exercise: Please indicate mean relative pDC50 recorded for CC1(C)[C@H](NC(=O)c2ncc(N3CCC(CN4CCC(n5ncc6c(N7CCC(=O)NC7=O)cccc65)CC4)CC3)cn2)C(C)(C)[C@H]1Oc1cnc(C#N)c(Cl)c1
Solution: 5.54

Exercise: Please indicate mean relative pDC50 recorded for C[C@@H]1CN(C(=O)Nc2ccc(N3CCC(CCN4CCC(n5ncc6c(N7CCC(=O)NC7=O)cncc65)CC4)CC3)nc2)[C@@H](C)CN1c1ccc(C#N)c(Cl)c1.O=CO
Solution: 5.94

The origin of these recorded values is patent US20250205344A1.
